- System: FAP-expressing HEK293T:hFAP tumor xenografts
- method: Ex vivo biodistribution in HEK293T:hFAP tumor-bearing mice
- assayConditions: 1 h post injection, mean ± SD, n = 4
- Experimental: Biodistribution studies were also conducted at 1 h post injection with [^68Ga]Ga-AV01017, [^68Ga]Ga-AV01030, [^68Ga]Ga-AV01038, [^68Ga]Ga-HTK03041, and [^68Ga]Ga-FAPI-04 in HEK293T:hFAP tumor-bearing mice (Figure 6 and Table S5, Supplementary Materials). Tumor uptake values for [^68Ga]Ga-AV01017, [^68Ga]Ga-AV01030, [^68Ga]Ga-AV01038, [^68Ga]Ga-HTK03041, and [^68Ga]Ga-FAPI-04 were 2.99 ± 0.37, 3.69 ± 0.81, 3.64 ± 0.83, 0.62 ± 0.19, and 12.5 ± 2.00 %ID/g, respectively. […]
propertyMeasured: Stomach uptake

- N#C[C@@H]1CC(F)(F)CN1C(=O)CNC(=O)c1ccnc2ccc(OCCCc3cn(CC(=O)N[C@@H](CCCCNC(=O)CN4CCN(CC(=O)[O-])CCN(CC(=O)[O-])CCN(CC(=O)[O-])CC4)C(=O)NCC(=O)NC[C@H]4CC[C@H](C(=O)N[C@@H](Cc5c6ccccc6cc6ccccc56)C(=O)NCCCC[C@H](NC(=O)N[C@@H](CCC(=O)O)C(=O)O)C(=O)O)CC4)nn3)cc12.[68Ga+3] [[^68Ga]Ga-AV01017]: 0.63 ± 0.08 %ID/g
- O=C([O-])CN1CCN(CC(=O)[O-])CCN(CC(=O)NC[C@H]2CC[C@H](C(=O)N[C@@H](Cc3c4ccccc4cc4ccccc34)C(=O)NCCCC[C@H](NC(=O)N[C@@H](CCC(=O)O)C(=O)O)C(=O)O)CC2)CCN(CC(=O)[O-])CC1.[68Ga+3] [[^68Ga]Ga-HTK03041, reference compound]: 0.22 ± 0.04 %ID/g
- N#C[C@@H]1CC(F)(F)CN1C(=O)CNC(=O)c1ccnc2ccc(OCCCN3CCN(C(=O)CN4CCN(CC(=O)[O-])CCN(CC(=O)[O-])CCN(CC(=O)[O-])CC4)CC3)cc12.[68Ga+3] [[^68Ga]Ga-FAPI-04, reference compound]: 0.07 ± 0.01 %ID/g
- N#C[C@@H]1CC(F)(F)CN1C(=O)CNC(=O)c1ccnc2ccc(OCc3cn(CC(=O)N[C@@H](CCCCNC(=O)CN4CCN(CC(=O)[O-])CCN(CC(=O)[O-])CCN(CC(=O)[O-])CC4)C(=O)NCC(=O)NC[C@H]4CC[C@H](C(=O)N[C@@H](Cc5c6ccccc6cc6ccccc56)C(=O)NCCCC[C@H](NC(=O)N[C@@H](CCC(=O)O)C(=O)O)C(=O)O)CC4)nn3)cc12.[68Ga+3] [[^68Ga]Ga-AV01038]: 0.60 ± 0.18 %ID/g
- N#C[C@@H]1CC(F)(F)CN1C(=O)CNC(=O)c1ccnc2ccc(-c3cn(CC(=O)N[C@@H](CCCCNC(=O)CN4CCN(CC(=O)[O-])CCN(CC(=O)[O-])CCN(CC(=O)[O-])CC4)C(=O)NCC(=O)NC[C@H]4CC[C@H](C(=O)N[C@@H](Cc5c6ccccc6cc6ccccc56)C(=O)NCCCC[C@H](NC(=O)N[C@@H](CCC(=O)O)C(=O)O)C(=O)O)CC4)nn3)cc12.[68Ga+3] [[^68Ga]Ga-AV01030]: 0.42 ± 0.04 %ID/g

---

- Test system: FAP-expressing HEK293T:hFAP tumor xenografts
- method: Ex vivo biodistribution in HEK293T:hFAP tumor-bearing mice
- assayConditions: 1 h post injection, mean ± SD, n = 4
propertyMeasured: HEK293T:hFAP tumor uptake (%ID/g)

- O=C([O-])CN1CCN(CC(=O)[O-])CCN(CC(=O)NC[C@H]2CC[C@H](C(=O)N[C@@H](Cc3c4ccccc4cc4ccccc34)C(=O)NCCCC[C@H](NC(=O)N[C@@H](CCC(=O)O)C(=O)O)C(=O)O)CC2)CCN(CC(=O)[O-])CC1.[68Ga+3] [[^68Ga]Ga-HTK03041, reference compound]: 0.62
- N#C[C@@H]1CC(F)(F)CN1C(=O)CNC(=O)c1ccnc2ccc(-c3cn(CC(=O)N[C@@H](CCCCNC(=O)CN4CCN(CC(=O)[O-])CCN(CC(=O)[O-])CCN(CC(=O)[O-])CC4)C(=O)NCC(=O)NC[C@H]4CC[C@H](C(=O)N[C@@H](Cc5c6ccccc6cc6ccccc56)C(=O)NCCCC[C@H](NC(=O)N[C@@H](CCC(=O)O)C(=O)O)C(=O)O)CC4)nn3)cc12.[68Ga+3] [[^68Ga]Ga-AV01030]: 3.69
- N#C[C@@H]1CC(F)(F)CN1C(=O)CNC(=O)c1ccnc2ccc(OCCCc3cn(CC(=O)N[C@@H](CCCCNC(=O)CN4CCN(CC(=O)[O-])CCN(CC(=O)[O-])CCN(CC(=O)[O-])CC4)C(=O)NCC(=O)NC[C@H]4CC[C@H](C(=O)N[C@@H](Cc5c6ccccc6cc6ccccc56)C(=O)NCCCC[C@H](NC(=O)N[C@@H](CCC(=O)O)C(=O)O)C(=O)O)CC4)nn3)cc12.[68Ga+3] [[^68Ga]Ga-AV01017]: 2.99
- N#C[C@@H]1CC(F)(F)CN1C(=O)CNC(=O)c1ccnc2ccc(OCCCN3CCN(C(=O)CN4CCN(CC(=O)[O-])CCN(CC(=O)[O-])CCN(CC(=O)[O-])CC4)CC3)cc12.[68Ga+3] [[^68Ga]Ga-FAPI-04, reference compound]: 12.5
- N#C[C@@H]1CC(F)(F)CN1C(=O)CNC(=O)c1ccnc2ccc(OCc3cn(CC(=O)N[C@@H](CCCCNC(=O)CN4CCN(CC(=O)[O-])CCN(CC(=O)[O-])CCN(CC(=O)[O-])CC4)C(=O)NCC(=O)NC[C@H]4CC[C@H](C(=O)N[C@@H](Cc5c6ccccc6cc6ccccc56)C(=O)NCCCC[C@H](NC(=O)N[C@@H](CCC(=O)O)C(=O)O)C(=O)O)CC4)nn3)cc12.[68Ga+3] [[^68Ga]Ga-AV01038]: 3.64

---

Parameter Liver uptake: see the listing below.
- Test system: FAP-expressing HEK293T:hFAP tumor xenografts
- method: Ex vivo biodistribution in HEK293T:hFAP tumor-bearing mice
- assayConditions: 1 h post injection, mean ± SD, n = 4
propertyMeasured: Liver uptake (%ID/g)

* N#C[C@@H]1CC(F)(F)CN1C(=O)CNC(=O)c1ccnc2ccc(OCc3cn(CC(=O)N[C@@H](CCCCNC(=O)CN4CCN(CC(=O)[O-])CCN(CC(=O)[O-])CCN(CC(=O)[O-])CC4)C(=O)NCC(=O)NC[C@H]4CC[C@H](C(=O)N[C@@H](Cc5c6ccccc6cc6ccccc56)C(=O)NCCCC[C@H](NC(=O)N[C@@H](CCC(=O)O)C(=O)O)C(=O)O)CC4)nn3)cc12.[68Ga+3] [[^68Ga]Ga-AV01038] | 2.16
* N#C[C@@H]1CC(F)(F)CN1C(=O)CNC(=O)c1ccnc2ccc(OCCCc3cn(CC(=O)N[C@@H](CCCCNC(=O)CN4CCN(CC(=O)[O-])CCN(CC(=O)[O-])CCN(CC(=O)[O-])CC4)C(=O)NCC(=O)NC[C@H]4CC[C@H](C(=O)N[C@@H](Cc5c6ccccc6cc6ccccc56)C(=O)NCCCC[C@H](NC(=O)N[C@@H](CCC(=O)O)C(=O)O)C(=O)O)CC4)nn3)cc12.[68Ga+3] [[^68Ga]Ga-AV01017] | 3.40
* O=C([O-])CN1CCN(CC(=O)[O-])CCN(CC(=O)NC[C@H]2CC[C@H](C(=O)N[C@@H](Cc3c4ccccc4cc4ccccc34)C(=O)NCCCC[C@H](NC(=O)N[C@@H](CCC(=O)O)C(=O)O)C(=O)O)CC2)CCN(CC(=O)[O-])CC1.[68Ga+3] [[^68Ga]Ga-HTK03041, reference compound] | 0.72
* N#C[C@@H]1CC(F)(F)CN1C(=O)CNC(=O)c1ccnc2ccc(OCCCN3CCN(C(=O)CN4CCN(CC(=O)[O-])CCN(CC(=O)[O-])CCN(CC(=O)[O-])CC4)CC3)cc12.[68Ga+3] [[^68Ga]Ga-FAPI-04, reference compound] | 0.36
* N#C[C@@H]1CC(F)(F)CN1C(=O)CNC(=O)c1ccnc2ccc(-c3cn(CC(=O)N[C@@H](CCCCNC(=O)CN4CCN(CC(=O)[O-])CCN(CC(=O)[O-])CCN(CC(=O)[O-])CC4)C(=O)NCC(=O)NC[C@H]4CC[C@H](C(=O)N[C@@H](Cc5c6ccccc6cc6ccccc56)C(=O)NCCCC[C@H](NC(=O)N[C@@H](CCC(=O)O)C(=O)O)C(=O)O)CC4)nn3)cc12.[68Ga+3] [[^68Ga]Ga-AV01030] | 1.51
